Entries annotated with measured FP signal
# Target Entity: 14-3-3β/CFTRpS753pS768 complex (Homo sapiens, UniProt P13569+P31946)
# Construct: His6 (cleaved yes); made in house; peptide synthetic
# Sequence (P31946 whole entry): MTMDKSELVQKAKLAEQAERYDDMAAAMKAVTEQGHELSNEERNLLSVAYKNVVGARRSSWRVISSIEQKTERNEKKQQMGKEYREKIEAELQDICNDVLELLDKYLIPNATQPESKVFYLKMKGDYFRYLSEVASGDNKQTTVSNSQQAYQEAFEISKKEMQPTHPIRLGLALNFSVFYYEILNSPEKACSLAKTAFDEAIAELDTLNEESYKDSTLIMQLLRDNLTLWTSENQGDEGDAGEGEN
# Sequence (P13569 747-774 limits assumed): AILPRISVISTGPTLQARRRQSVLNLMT
# Test Details: Dose-response fluorescence polarization (FP) assay, compound titration
# Format: binding
# Condition Summary: With 14-3-3; compound 1.52588e-8 M
Please state the value as a number alone, without comment.

CC1NC(=O)C(CCCNC(=N)N)NC(=O)C2CCCN2Cc2cccc(c2)-c2ccccc2CNC(=O)C(CCCNC(=N)N)NC1=O (stereo not drawn) [CY007476] : 4
C=CC(C)(C)OC[C@H]1O[C@H](O[C@@H]2C3=C([C@H](C)COC(C)=O)C[C@H](O)[C@]3(C)/C=C3/[C@@H](COC)CC[C@H]3[C@@H](C)[C@H]2O)[C@H](O)[C@@H](OC(C)=O)[C@@H]1O [FC-A, fusicoccin A, reference compound] : 2
N=C(N)NCCCC1NC(=O)C(CCC(N)=O)NC(=O)C(CCCNC(=N)N)NC(=O)C2CCCN2Cc2cccc(c2)-c2ccccc2CNC1=O (stereo not drawn) [CY007458] : 4
NCCCCC1NCc2ccccc2Sc2ccccc2CNC(=O)C(Cc2cccc(Cl)c2)NC(=O)C(Cc2ccc(O)cc2)NC1=O (stereo not drawn) [CY007288] : 6
N=C(N)NCCCC1NC(=O)C(CCC(N)=O)NC(=O)C(CCCNC(=N)N)NC(=O)C2CCCN2Cc2cccc(c2)-c2ccccc2CNC1=O (stereo not drawn) [CY007455] : 4

Record CN1CC(=O)NC(CCCNC(=N)N)C(=O)NC(CCC(N)=O)C(=O)NC(CCCNC(=N)N)C(=O)NCc2ccccc2-c2cccc(c2)C1 (stereo not drawn) [CY007491] , field FP signal: 6

Record N=C(N)NCCCC1NCc2ccccc2Sc2ccccc2CNC(=O)C(Cc2ccc(O)cc2)NC(=O)C(CCCN)NC1=O (stereo not drawn) [CY007424] , field FP signal: 7

Record N=C(N)NCCCC1NC(=O)C(CCCCN)NCc2ccccc2Sc2ccccc2CNC(=O)C(Cc2ccc(O)cc2)NC1=O (stereo not drawn) [CY001951] , field FP signal: 5

Record NCCCC1NCc2ccccc2Sc2ccccc2CNC(=O)C(Cc2c[nH]c3ccccc23)NC(=O)C(Cc2ccccc2)NC1=O (stereo not drawn) [CY007345] , field FP signal: 4

====

# Target Entity: 14-3-3β/CFTRpS753pS768 complex (Homo sapiens, UniProt P13569+P31946)
# Construct: His6 (cleaved yes); made in house; peptide synthetic
# Test Details: Dose-response fluorescence polarization (FP) assay, compound titration
# Assay type: binding
# Condition Summary: With 14-3-3; compound 3.8147e-9 M
Give Y when the value for FP signal is at least 5. Give N when it is less.

[in] # bool: FP signal of CN1CC(=O)NC(CCCNC(=N)N)C(=O)NC(CCC(N)=O)C(=O)NC(CCCNC(=N)N)C(=O)NCc2ccccc2-c2cccc(c2)C1 (stereo not drawn) >= 5
[out] Y

[in] # bool: FP signal of C=CC(C)(C)OC[C@H]1O[C@H](O[C@@H]2C3=C([C@H](C)COC(C)=O)C[C@H](O)[C@]3(C)/C=C3/[C@@H](COC)CC[C@H]3[C@@H](C)[C@H]2O)[C@H](O)[C@@H](OC(C)=O)[C@@H]1O [FC-A, fusicoccin A, reference compound] >= 5
[out] N

====

# Target Entity: 14-3-3β/CFTRpS753pS768 complex (Homo sapiens, UniProt P13569+P31946)
# Construct: His6 (cleaved yes); made in house; peptide synthetic
# Test Details: Dose-response fluorescence polarization (FP) assay, compound titration
# Type: binding
# Condition Summary: With 14-3-3; compound 3.90625e-6 M
Mark criterion met for FP signal under 8, criterion not met if at or over.

N=C(N)NCCCC1NC(=O)C(CCC(N)=O)NC(=O)C(CCCNC(=N)N)NC(=O)C2CCCN2Cc2cccc(c2)-c2ccccc2CNC1=O (stereo not drawn) [CY007455] : criterion not met

[in] Is 8 strictly greater than the molecule's reported FP signal? molecule: N=C(N)NCCCC1NCc2ccccc2Sc2ccccc2CNC(=O)C(Cc2ccc(O)cc2)NC(=O)C(CCCN)NC1=O (stereo not drawn)
[out] criterion not met

[in] Is 8 strictly greater than the molecule's reported FP signal? molecule: CC1NC(=O)C(CCCNC(=N)N)NC(=O)C2CCCN2Cc2cccc(c2)-c2ccccc2CNC(=O)C(CCCNC(=N)N)NC1=O (stereo not drawn)
[out] criterion met

[in] Is 8 strictly greater than the molecule's reported FP signal? molecule: NCCCC1NCc2ccccc2Sc2ccccc2CNC(=O)C(Cc2c[nH]c3ccccc23)NC(=O)C(Cc2ccccc2)NC1=O (stereo not drawn)
[out] criterion not met

[in] Is 8 strictly greater than the molecule's reported FP signal? molecule: N=C(N)NCCCC1NC(=O)C(CCCCN)NCc2ccccc2Sc2ccccc2CNC(=O)C(Cc2ccc(O)cc2)NC1=O (stereo not drawn)
[out] criterion met

[in] Is 8 strictly greater than the molecule's reported FP signal? molecule: C=CC(C)(C)OC[C@H]1O[C@H](O[C@@H]2C3=C([C@H](C)COC(C)=O)C[C@H](O)[C@]3(C)/C=C3/[C@@H](COC)CC[C@H]3[C@@H](C)[C@H]2O)[C@H](O)[C@@H](OC(C)=O)[C@@H]1O [FC-A, fusicoccin A, reference compound]
[out] criterion not met

[in] Is 8 strictly greater than the molecule's reported FP signal? molecule: CN1CC(=O)NC(CCCNC(=N)N)C(=O)NC(CCC(N)=O)C(=O)NC(CCCNC(=N)N)C(=O)NCc2ccccc2-c2cccc(c2)C1 (stereo not drawn)
[out] criterion met

====

# Target Entity: FITC-labeled CFTRpS753pS768 peptide (no 14-3-3) (Homo sapiens, UniProt P13569)
# Construct: made in house; host or cells: synthetic peptide
# Test Details: Dose-response FP control assay in the absence of 14-3-3
# Format: binding
# Condition Summary: No 14-3-3; compound 3.05176e-8 M
Give YES when the value for FP signal is at least 4. Give NO when it is less.

[in] # bool: FP signal of N=C(N)NCCCC1NCc2ccccc2Sc2ccccc2CNC(=O)C(Cc2ccc(O)cc2)NC(=O)C(CCCN)NC1=O (stereo not drawn) >= 4
[out] YES

[in] # bool: FP signal of NCCCCC1NCc2ccccc2Sc2ccccc2CNC(=O)C(Cc2cccc(Cl)c2)NC(=O)C(Cc2ccc(O)cc2)NC1=O (stereo not drawn) >= 4
[out] YES

[in] # bool: FP signal of N=C(N)NCCCC1NC(=O)C(CCC(N)=O)NC(=O)C(CCCNC(=N)N)NC(=O)C2CCCN2Cc2cccc(c2)-c2ccccc2CNC1=O (stereo not drawn) [CY007458] >= 4
[out] YES

[in] # bool: FP signal of CN1CC(=O)NC(CCCNC(=N)N)C(=O)NC(CCC(N)=O)C(=O)NC(CCCNC(=N)N)C(=O)NCc2ccccc2-c2cccc(c2)C1 (stereo not drawn) >= 4
[out] NO

[in] # bool: FP signal of C=CC(C)(C)OC[C@H]1O[C@H](O[C@@H]2C3=C([C@H](C)COC(C)=O)C[C@H](O)[C@]3(C)/C=C3/[C@@H](COC)CC[C@H]3[C@@H](C)[C@H]2O)[C@H](O)[C@@H](OC(C)=O)[C@@H]1O [FC-A, fusicoccin A, reference compound] >= 4
[out] NO

[in] # bool: FP signal of CC1NC(=O)C(CCCNC(=N)N)NC(=O)C2CCCN2Cc2cccc(c2)-c2ccccc2CNC(=O)C(CCCNC(=N)N)NC1=O (stereo not drawn) >= 4
[out] YES

====

Entries annotated with measured FP signal
# Target Entity: 14-3-3β/CFTRpS753pS768 complex (Homo sapiens, UniProt P13569+P31946)
# Construct: His6 (cleaved yes); made in house; peptide synthetic
# Test Details: Dose-response fluorescence polarization (FP) assay, compound titration
# Assay type: binding
# Condition Summary: With 14-3-3; compound 4.88281e-7 M
Please state the value as a number alone, without comment.

NCCCC1NCc2ccccc2Sc2ccccc2CNC(=O)C(Cc2c[nH]c3ccccc23)NC(=O)C(Cc2ccccc2)NC1=O (stereo not drawn) [CY007345] : 6
N=C(N)NCCCC1NC(=O)C(CCCCN)NCc2ccccc2Sc2ccccc2CNC(=O)C(Cc2ccc(O)cc2)NC1=O (stereo not drawn) [CY001951] : 5

Record N=C(N)NCCCC1NCc2ccccc2Sc2ccccc2CNC(=O)C(Cc2ccc(O)cc2)NC(=O)C(CCCN)NC1=O (stereo not drawn) [CY007424] , field FP signal: 7

====

# Target Entity: 14-3-3β/CFTRpS753pS768 complex (Homo sapiens, UniProt P13569+P31946)
# Construct: His6 (cleaved yes); made in house; peptide synthetic
# Test Details: Dose-response fluorescence polarization (FP) assay, compound titration
# Assay type: binding
# Condition Summary: With 14-3-3; compound 0.0005 M
# Procedure: The 14-3-3β concentration used for the FP screening assay was 10 μM (dashed line). c HTS FP assay of the Cyclenium library. The samples contain 100 nM of FITC-CFTR_pS753pS768 peptide, 10 μM 14-3-3β, and 50 μM compound. FC-A (100 µM) was added as a positive control and DMSO as the negative control. Hit compounds are defined as a polarization increase which is higher than 20% of the response of FC-A. Red squares are compounds that appeared positive in the negative control without 14-3-3. […]
Observed Property: FP signal
Please state the value as a number alone, without comment.

Record N=C(N)NCCCC1NC(=O)C(CCC(N)=O)NC(=O)C(CCCNC(=N)N)NC(=O)C2CCCN2Cc2cccc(c2)-c2ccccc2CNC1=O (stereo not drawn) [CY007455] , field FP signal: 209
